- Tested on: MCF7
- Assay info: Growth inhibitory activity against MCF-7 human breast tumor cell line at a concentration of 10e-7 M in vitro.
- Format: functional
- Parameters: scale not given: the % may be the effect or the level left
Quantity name: Activity (%)
Answers are plain numbers, in %.

# Compound, Result units, Activity
data = [
    ("CC/C(=C(/c1ccccc1)c1ccc(OCCN(C)C)cc1)c1ccccc1", "%", 140),
    ("CC/C(=C(\\c1ccc(Cl)cc1)c1ccc(OCCN(C)C)cc1)c1ccccc1", "%", 119),
    ("CC/C(=C(/c1ccc(Br)cc1)c1ccc(OCCN(C)C)cc1)c1ccccc1", "%", 163),
    ("CC/C(=C(/c1ccc(I)cc1)c1ccc(OCCN(C)C)cc1)c1ccccc1", "%", 126),
    ("CC/C(=C(\\c1ccc(S)cc1)c1ccc(OCCN(C)C)cc1)c1ccccc1", "%", 110),
]

Hi, could you look up Activity for each item in my list?
1. CC/C(=C(/c1ccc(OCCN(C)C)cc1)c1ccc(SC)cc1)c1ccccc1
2. CC/C(=C(\c1ccc(I)cc1)c1ccc(OCCN(CC)CC)cc1)c1ccccc1

Reply:
[66, 35]

Hi, could you look up Activity for each item in my list?
1. CCC(=C(c1ccc(O)cc1)c1ccc(OCCN(C)C)cc1)c1ccccc1
2. CC/C(=C(\c1ccc(OCCN(C)C)cc1)c1ccc(SC)cc1)c1ccccc1
3. CC/C(=C(\c1ccc(OCCN(C)C)cc1)c1ccc(S(C)(=O)=O)cc1)c1ccccc1
4. CC/C(=C(\c1ccc(OCCN(C)C)cc1)c1ccc([S+](C)[O-])cc1)c1ccccc1 (stereo unspecified)
5. CC/C(=C(\c1ccc(C=O)cc1)c1ccc(OCCN(C)C)cc1)c1ccccc1
6. CC/C(=C(/c1ccc(OCCN(C)C)cc1)c1ccc(C2CO2)cc1)c1ccccc1 (stereo unspecified)

Reply:
38
117
114
135
38
42

Hi, could you look up Activity for each item in my list?
1. CC/C(=C(/c1ccc(OCCN(C)C)cc1)c1ccc([S+](C)[O-])cc1)c1ccccc1 (stereo unspecified)
2. CC/C(=C(\c1ccc(I)cc1)c1ccc(OCCN2CCCC2)cc1)c1ccccc1 [IDOXIFENE]
3. CC/C(=C(\c1ccc(CO)cc1)c1ccc(OCCN(C)C)cc1)c1ccccc1
4. CC/C(=C(\c1ccccc1)c1ccc(OCCN(C)C)cc1)c1ccccc1 [TAMOXIFEN]

Reply:
1. 237
2. 27
3. 145
4. 100

Hi, could you look up Activity for each item in my list?
1. CC/C(=C(\c1ccc(Br)cc1)c1ccc(OCCN(C)C)cc1)c1ccccc1
2. CC/C(=C(\c1ccc(I)cc1)c1ccc(OCCN(C)C)cc1)c1ccccc1
3. CC/C(=C(/c1ccc(OCCN(C)C)cc1)c1ccc(S(C)(=O)=O)cc1)c1ccccc1
4. CC/C(=C(/c1ccc(OCCN(C)C)cc1)c1cccc(I)c1)c1ccccc1

Reply:
1. 101
2. 42
3. 75
4. 68
